Data credit: PubChem BioAssay AID1851

Biological target: Cytochrome P450 1A2 (Homo sapiens)
Test: Cytochrome panel assay with activity outcomes
Conditions: recombinant CYP, pro-luciferin dealkylation, luminescence, p450-cyp1a2; series mostly up to 57.1 µM
The campaign covered roughly 16,000 compounds. About 5,700 (36%) were called active. Inconclusive results (about 24%) are left out. Calls follow the shape of the dose curve; as a rule, active = well fitted curve in the direction sought with a large enough effect; inconclusive = small, poorly fitted or top-dose-only effect, or effect the other way; inactive = no such curve, though single readings can be large or run the other way. This is one part of the list.
Give one outcome, nothing more. List: YES for active, NO for inactive

# molecule, label.class
records = [
    ("Cc1cc(N)n(-c2ccc3ccccc3c2)n1", "YES"),
    ("Cc1noc(C)c1C(=O)N1CCC2(CC1)CN(C(=O)Nc1cccc(F)c1)C2", "NO"),
    ("COc1ccccc1CNc1ccnc(-c2ccc3c(c2)OCO3)n1", "YES"),
    ("OC(c1ccccc1)(c1ccc(F)cc1)C(c1ccccc1)N1CCOCC1 (stereo unspecified)", "NO"),
]

Query: Please state the recorded outcome for this molecule: CC(C)Sc1cc(N2CCOCC2)nc(-c2ccc(Cl)cc2)n1
Reply: YES

Query: Please state the recorded outcome for this molecule: Cc1noc(N)c1C(=O)Nc1ccc(F)cc1
Reply: YES

Query: Please state the recorded outcome for this molecule: C/C(=N\OC(=O)c1ccccc1)c1cc(-c2ccc(Cl)cc2)no1
Reply: YES

Query: Please state the recorded outcome for this molecule: Cc1cccc([C@@H]2CN(C)CCc3c2cc(O)c(O)c3Cl)c1
Reply: NO

Query: Please state the recorded outcome for this molecule: N#C/C(=C/N1CCOCC1)c1ccccc1
Reply: YES

Query: Please state the recorded outcome for this molecule: COC(=O)[C@@]1(Cc2ccc(OC)cc2)[C@@H]2[C@@H](CC(=O)[C@H]2CC(=O)C(=O)N2CCCC2)CN1C(=O)c1ccccc1
Reply: NO

Query: Please state the recorded outcome for this molecule: O=S(Cc1ccccc1)CC(O)(c1ccccc1)c1ccccc1 (stereo unspecified)
Reply: NO

Query: Please state the recorded outcome for this molecule: Cc1cnn(CCC(=O)NNC(=S)Nc2ccc(F)cc2)c1
Reply: NO

Query: Please state the recorded outcome for this molecule: COc1cc(-c2ccc(N=Nc3ccc4c(S(=O)(=O)O)cc(S(=O)(=O)O)c(N)c4c3O)c(OC)c2)ccc1N=Nc1ccc2c(S(=O)(=O)O)cc(S(=O)(=O)O)c(N)c2c1O
Reply: YES

Query: Please state the recorded outcome for this molecule: C(=N\N(c1ccccc1)c1ccccc1)/c1ccc2c(c1)OCO2
Reply: YES

Query: Please state the recorded outcome for this molecule: CCCSc1cc(N2CCCC2)nc(-c2ccccc2)n1
Reply: YES

Query: Please state the recorded outcome for this molecule: c1ccc2c(c1)c1ccccc1n2Cn1c2ccccc2c2ccccc21
Reply: YES

----------
Biological target: Cytochrome P450 1A2 (Homo sapiens) (UniProt P05177)
Sequence (P05177 whole entry, looked up): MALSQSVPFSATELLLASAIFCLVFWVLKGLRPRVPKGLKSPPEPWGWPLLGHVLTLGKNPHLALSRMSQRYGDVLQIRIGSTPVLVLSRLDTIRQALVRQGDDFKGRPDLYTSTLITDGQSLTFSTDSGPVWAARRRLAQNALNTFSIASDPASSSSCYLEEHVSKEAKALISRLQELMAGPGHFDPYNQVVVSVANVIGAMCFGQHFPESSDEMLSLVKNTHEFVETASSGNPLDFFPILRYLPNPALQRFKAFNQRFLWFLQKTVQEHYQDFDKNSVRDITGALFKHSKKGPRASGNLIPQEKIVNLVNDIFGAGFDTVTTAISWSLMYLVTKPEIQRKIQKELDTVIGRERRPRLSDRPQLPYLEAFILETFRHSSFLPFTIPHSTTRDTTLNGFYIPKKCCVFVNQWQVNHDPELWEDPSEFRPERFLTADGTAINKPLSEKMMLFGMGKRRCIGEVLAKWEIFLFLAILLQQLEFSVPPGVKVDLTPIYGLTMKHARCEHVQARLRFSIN
Test: Cytochrome panel assay with activity outcomes
Details: recombinant CYP, pro-luciferin dealkylation, luminescence, p450-cyp1a2; series mostly up to 57.1 µM
About 5,700 (36%) of roughly 16,000 compounds were called active. About 24% were inconclusive and are not listed. Calls come from the whole dose curve; as a rule, active = well fitted curve in the direction sought with a large enough effect; inconclusive = small, poorly fitted or top-dose-only effect, or effect the other way; inactive = no such curve, though single readings can be large or run the other way. This is one part of the list.
Give one outcome, nothing more. List: active, inactive

# compound.structure, label.class
measured = [
    ("Cc1ccc(C(=O)NNC(=O)CSc2nnc(-c3ccncc3)n2-c2ccc(C)cc2)cc1", "inactive"),
    ("CCn1c(SCC(=O)N2CCN(S(=O)(=O)c3ccccc3)CC2)nnc1-c1cccs1", "inactive"),
    ("Clc1ccccc1-c1nc(Nc2ccncc2)c2ccccc2n1", "active"),
]

Query: Please state the recorded outcome for this compound: N/C(=N\OC(=O)Cc1ccc(Cl)cc1)c1cccnc1
Reply: active

Query: Please state the recorded outcome for this compound: Cc1cc(C)c(C)c(S(=O)(=O)ON2C(=O)c3ccccc3C2=O)c1C
Reply: active

Query: Please state the recorded outcome for this compound: CNc1nc(-c2ccccc2C)nc2ccccc12
Reply: active

Query: Please state the recorded outcome for this compound: CCn1c(SCC(=O)c2ccccc2)nnc1-c1cccs1
Reply: active

Query: Please state the recorded outcome for this compound: N#Cc1c(NC(=O)CCN2C(=O)c3ccccc3C2=O)oc(-c2ccccc2)c1-c1ccccc1
Reply: active

Query: Please state the recorded outcome for this compound: CNc1nc(-c2ccccc2Cl)nc2ccccc12
Reply: active

Query: Please state the recorded outcome for this compound: Cc1cc2nc(C)n(CCCN)c2cc1C
Reply: active

----------
Biological target: Cytochrome P450 1A2 (Homo sapiens)
Assay: Cytochrome panel assay with activity outcomes
Settings: recombinant CYP, pro-luciferin dealkylation, luminescence, p450-cyp1a2; series mostly up to 57.1 µM
Hit rate of the full screen: of about 16,000 compounds, about 5,700 (36%) were called active. About 24% were inconclusive and are not listed. This is one part of the list.
measured.metric: AC50

# compound.structure, target.or.system, AC50
measured = [
    ("CCOc1ccc(CC(C(N)=O)C(N)=O)cc1CN(C)C", "Cytochrome P450 1A2 (Homo sapiens)", "inactive"),
    ("CCOc1cc(CNCCc2ccc(S(N)(=O)=O)cc2)ccc1OCc1ccc(Cl)cc1", "Cytochrome P450 1A2 (Homo sapiens)", "inactive"),
    ("CN(Cc1ccco1)c1ncnc2ccc(-c3cccc(NS(C)(=O)=O)c3)cc12", "Cytochrome P450 1A2 (Homo sapiens)", "0.398 µM (active)"),
    ("CC(C)OC(=O)CC12CN(C)CC(CC(=O)OC(C)C)(CN(C)C1)C2=O", "Cytochrome P450 1A2 (Homo sapiens)", "inactive"),
    ("C=CCN=C1CC(C)(C)CC(=O)/C1=C(\\O)c1ccccc1", "Cytochrome P450 1A2 (Homo sapiens)", "inactive"),
]

Pending molecule:
Per the record, CCOc1ccc(Cl)cc1CNCCNCCO has AC50 of 15.8 µM (active)

----------
Molecular target: Cytochrome P450 1A2 (Homo sapiens) (UniProt P05177)
Assay: Cytochrome panel assay with activity outcomes
Details: recombinant CYP, pro-luciferin dealkylation, luminescence, p450-cyp1a2; series mostly up to 57.1 µM
About 5,700 (36%) of roughly 16,000 compounds were called active. Not shown: some 24% with an inconclusive outcome. The call rests on the fitted dose curve; in most records, active means well fitted curve in the direction sought with a large enough effect; inconclusive means small, poorly fitted or top-dose-only effect, or effect the other way; inactive means no such curve, though single readings can be large or run the other way. Some of the results follow.
Give one outcome, nothing more. List: TRUE for active, FALSE for inactive

See these solved cases before continuing.
# compound, label.class
data = [
    ("CCOC(=O)c1cc(NC(=O)c2ccc(C)cc2)c(=O)oc1-c1ccccc1", "FALSE"),
    ("CC(C)C(NS(=O)(=O)c1cccc2nsnc12)C(=O)N1CCc2ccccc2C1 (configuration not stated)", "FALSE"),
    ("COc1cc2nc(N3CCN(C(=O)[C@@H]4CCCO4)CC3)nc(N)c2cc1OC", "FALSE"),
    ("CCN(CC)CCCCCCCCOC(=O)c1cc(OC)c(OC)c(OC)c1", "FALSE"),
    ("CCNc1ncc2nc(-c3ccc(Cl)cc3)c(=O)n(C3CC3)c2n1", "TRUE"),
    ("Cc1cc(N)ccc1NC(=O)c1ccccc1", "TRUE"),
]

Query: Please state the recorded outcome for this compound: O=S(=O)(NCCNC/C=C\c1ccc(Br)cc1)c1cccc2cnccc12
Reply: TRUE

Query: Please state the recorded outcome for this compound: O=C(c1csnn1)N1CCC2(CC1)CCN(c1ccncc1)CC2
Reply: FALSE

Query: Please state the recorded outcome for this compound: CC(=O)c1cc(NC(=O)c2ccccc2)c(=O)oc1/C=C/N(C)C
Reply: TRUE

Query: Please state the recorded outcome for this compound: CS(=O)c1ccc(-c2nc(-c3ccc(F)cc3)c(-c3ccncc3)[nH]2)cc1 (configuration not stated)
Reply: TRUE

Query: Please state the recorded outcome for this compound: Cc1oc(=O)c(NC(=O)c2ccccc2)cc1C(=O)c1ccccc1
Reply: TRUE

Query: Please state the recorded outcome for this compound: CN(C)C(=O)Oc1cccc([N+](C)(C)C)c1
Reply: FALSE

Query: Please state the recorded outcome for this compound: CCCOc1cc(N)ccc1C(=O)OCCN(CC)CC
Reply: TRUE

Query: Please state the recorded outcome for this compound: Cc1cc(N2CCOCC2)nc(SCc2ccc(Cl)cc2Cl)n1
Reply: TRUE

Query: Please state the recorded outcome for this compound: CCOc1cc(/C=C2/NC(=O)N(CC(=O)Nc3cccc(C)c3)C2=O)ccc1OC
Reply: FALSE

Query: Please state the recorded outcome for this compound: O=c1c(-c2ccccc2)nc2cncnc2n1-c1ccccc1
Reply: TRUE

Query: Please state the recorded outcome for this compound: Oc1ccc(-c2nc(-c3ccc(F)cc3)c(-c3ccncc3)[nH]2)cc1
Reply: TRUE

Query: Please state the recorded outcome for this compound: COc1cc(N)c(Cl)cc1C(=O)OCCCN1CCCCC1
Reply: FALSE

Query: Please state the recorded outcome for this compound: O=C(CCCNS(=O)(=O)c1cccc2nsnc12)NCCc1ccccc1
Reply: TRUE

Query: Please state the recorded outcome for this compound: CC(C)(C)N(NC(=O)c1ccccc1)C(=O)c1cccc(C(=O)N(NC(=O)c2ccccc2)C(C)(C)C)c1
Reply: FALSE

Query: Please state the recorded outcome for this compound: CC(=O)c1cc(NC(=O)c2cccc(C(F)(F)F)c2)c(=O)oc1/C=C/N(C)C
Reply: FALSE

Query: Please state the recorded outcome for this compound: CC(C)OC(=O)c1cccc(C(=O)Oc2ccc(Br)cc2)n1
Reply: FALSE
